Molecular target: T1, HLA-B07.02 (human)
T1 construct: Purified class I MHC
Assay: pMHC-I dissociation half-life, 125I-b2m
property: Stability (T1/2 (h))
Answers are plain numbers, in h.

{"binder": "LPSQRRNHWM (also called TP53, CSES)", "property": "Stability (T1/2 (h))", "unit.string": "h", "numeric.readout": 6.5}

Could you tell me Stability (T1/2 (h)) for each of these binders? They are listed below.
1. KLMLLRLNL (also called SEC31A(-1))
2. HPRPAPASA (also called TP53, SHST)
3. LPRKPTRAAT (also called TP53, QPSL)
4. KPTRAATVSV (also called TP53, QPSL)

### Response
1: 1.5; 2: 4.9; 3: 3.7; 4: 3
